Every entry's value here was drawn from ChEMBL document CHEMBL5113531.

Method notes: Permeability of the compound at pH 6.8 by HDM-PAMPA assay
Format: ADME
Assay setup: read-out: permeability
Experimental endpoint: Papp (×10⁻⁶ cm/s)
State the answer as a number, implicitly in ×10⁻⁶ cm/s.

Which Papp is listed for Cc1cccc2sc(NC(=O)CCN3CCN(CCCN(C)C)CC3)nc12 ? 4.5

---

Method notes: Permeability of the compound across blood brain barrier at pH 7.4 incubated for 16 hrs by PAMPA assay
Type: ADME
Assay setup: read-out: permeability
Experimental endpoint: Papp at 16 h (×10⁻⁶ cm/s)
Please state the figure in ×10⁻⁶ cm/s; there is no need to write the unit.

May I ask what Papp at 16 h has been recorded for Cc1cccc2sc(NC(=O)CCN3CCN(CCCN(C)C)CC3)nc12 ? 4
